These entries and their values trace back to patent US6294648.

# assayed-target: T1, Human neutrophil cathepsin G (human, UniProt P08311)
# T1 sequence: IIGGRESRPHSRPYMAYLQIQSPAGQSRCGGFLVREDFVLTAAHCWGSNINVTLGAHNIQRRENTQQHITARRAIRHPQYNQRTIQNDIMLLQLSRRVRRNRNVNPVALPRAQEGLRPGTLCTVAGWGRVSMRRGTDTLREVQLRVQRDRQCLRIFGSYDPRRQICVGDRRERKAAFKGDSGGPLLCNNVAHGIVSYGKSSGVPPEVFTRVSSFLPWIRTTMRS
# procedure-details: enzyme inhibition; 30 min preincubation at 37 C; Suc-AAPF-AMC hydrolysis by fluorescence; Ki* corrected for substrate
readout: Ki
Dear colleague, please send the value followed by its unit.

So, BTL.009 (other) KQDVCEMPKETGPCLAYFLHWWYDKKDNTCSMFVYGGCQGNNNNFQSKANCLNTC ? Its Ki was 1800 nM
